molecular target: mTOR (human) (Homo sapiens (Human), UniProt P42345); test: mTOR (human) radiometric kinase assay; assay type: biochemical; settings: IC50 (ATM) at least 2000 times higher compared with IC50 (mTOR)
experimentalEndpoint: ratio IC50 (ATM):IC50(mTOR), selectivity with respect to mTOR

Consider the worked cases shown below.
chemicalSmiles | measValue
COc1cc2ncc3c(c2cc1-c1cc[nH]n1)n(-c1cn(C)nc1C)c(=O)n3C | at least 2000 times
CCc1cncc(F)c1-n1c(=O)n(C)c2cnc3cc(OC)c(-c4cn(C)nn4)cc3c21 | at least 2000 times
COc1ccc(-c2cc3c(cc2OC)ncc2c3n(-c3cn(C)nc3F)c(=O)n2C)cn1 | at least 2000 times
COc1cnc(-n2c(=O)n(C)c3cnc4cc(OC)c(-c5c[nH]nc5C)cc4c32)c(F)c1 | at least 2000 times

# context switch: different compound, same ratio IC50 (ATM):IC50(mTOR), selectivity with respect to mTOR
Ask: Please report the measured ratio IC50 (ATM):IC50(mTOR), selectivity with respect to mTOR for `COc1cc2ncc3c(c2cc1-c1ccc2nc(C)[nH]c2c1)n(-c1c(F)cncc1OC)c(=O)n3C`
Reply: at least 2000 times

---

target: human recombinant ATM (Homo sapiens (Human), UniProt Q13315); assay: ATM kinase assay (IC50 ATM), TR-FRET; assay type: biochemical
Sequence (Q13315 whole entry): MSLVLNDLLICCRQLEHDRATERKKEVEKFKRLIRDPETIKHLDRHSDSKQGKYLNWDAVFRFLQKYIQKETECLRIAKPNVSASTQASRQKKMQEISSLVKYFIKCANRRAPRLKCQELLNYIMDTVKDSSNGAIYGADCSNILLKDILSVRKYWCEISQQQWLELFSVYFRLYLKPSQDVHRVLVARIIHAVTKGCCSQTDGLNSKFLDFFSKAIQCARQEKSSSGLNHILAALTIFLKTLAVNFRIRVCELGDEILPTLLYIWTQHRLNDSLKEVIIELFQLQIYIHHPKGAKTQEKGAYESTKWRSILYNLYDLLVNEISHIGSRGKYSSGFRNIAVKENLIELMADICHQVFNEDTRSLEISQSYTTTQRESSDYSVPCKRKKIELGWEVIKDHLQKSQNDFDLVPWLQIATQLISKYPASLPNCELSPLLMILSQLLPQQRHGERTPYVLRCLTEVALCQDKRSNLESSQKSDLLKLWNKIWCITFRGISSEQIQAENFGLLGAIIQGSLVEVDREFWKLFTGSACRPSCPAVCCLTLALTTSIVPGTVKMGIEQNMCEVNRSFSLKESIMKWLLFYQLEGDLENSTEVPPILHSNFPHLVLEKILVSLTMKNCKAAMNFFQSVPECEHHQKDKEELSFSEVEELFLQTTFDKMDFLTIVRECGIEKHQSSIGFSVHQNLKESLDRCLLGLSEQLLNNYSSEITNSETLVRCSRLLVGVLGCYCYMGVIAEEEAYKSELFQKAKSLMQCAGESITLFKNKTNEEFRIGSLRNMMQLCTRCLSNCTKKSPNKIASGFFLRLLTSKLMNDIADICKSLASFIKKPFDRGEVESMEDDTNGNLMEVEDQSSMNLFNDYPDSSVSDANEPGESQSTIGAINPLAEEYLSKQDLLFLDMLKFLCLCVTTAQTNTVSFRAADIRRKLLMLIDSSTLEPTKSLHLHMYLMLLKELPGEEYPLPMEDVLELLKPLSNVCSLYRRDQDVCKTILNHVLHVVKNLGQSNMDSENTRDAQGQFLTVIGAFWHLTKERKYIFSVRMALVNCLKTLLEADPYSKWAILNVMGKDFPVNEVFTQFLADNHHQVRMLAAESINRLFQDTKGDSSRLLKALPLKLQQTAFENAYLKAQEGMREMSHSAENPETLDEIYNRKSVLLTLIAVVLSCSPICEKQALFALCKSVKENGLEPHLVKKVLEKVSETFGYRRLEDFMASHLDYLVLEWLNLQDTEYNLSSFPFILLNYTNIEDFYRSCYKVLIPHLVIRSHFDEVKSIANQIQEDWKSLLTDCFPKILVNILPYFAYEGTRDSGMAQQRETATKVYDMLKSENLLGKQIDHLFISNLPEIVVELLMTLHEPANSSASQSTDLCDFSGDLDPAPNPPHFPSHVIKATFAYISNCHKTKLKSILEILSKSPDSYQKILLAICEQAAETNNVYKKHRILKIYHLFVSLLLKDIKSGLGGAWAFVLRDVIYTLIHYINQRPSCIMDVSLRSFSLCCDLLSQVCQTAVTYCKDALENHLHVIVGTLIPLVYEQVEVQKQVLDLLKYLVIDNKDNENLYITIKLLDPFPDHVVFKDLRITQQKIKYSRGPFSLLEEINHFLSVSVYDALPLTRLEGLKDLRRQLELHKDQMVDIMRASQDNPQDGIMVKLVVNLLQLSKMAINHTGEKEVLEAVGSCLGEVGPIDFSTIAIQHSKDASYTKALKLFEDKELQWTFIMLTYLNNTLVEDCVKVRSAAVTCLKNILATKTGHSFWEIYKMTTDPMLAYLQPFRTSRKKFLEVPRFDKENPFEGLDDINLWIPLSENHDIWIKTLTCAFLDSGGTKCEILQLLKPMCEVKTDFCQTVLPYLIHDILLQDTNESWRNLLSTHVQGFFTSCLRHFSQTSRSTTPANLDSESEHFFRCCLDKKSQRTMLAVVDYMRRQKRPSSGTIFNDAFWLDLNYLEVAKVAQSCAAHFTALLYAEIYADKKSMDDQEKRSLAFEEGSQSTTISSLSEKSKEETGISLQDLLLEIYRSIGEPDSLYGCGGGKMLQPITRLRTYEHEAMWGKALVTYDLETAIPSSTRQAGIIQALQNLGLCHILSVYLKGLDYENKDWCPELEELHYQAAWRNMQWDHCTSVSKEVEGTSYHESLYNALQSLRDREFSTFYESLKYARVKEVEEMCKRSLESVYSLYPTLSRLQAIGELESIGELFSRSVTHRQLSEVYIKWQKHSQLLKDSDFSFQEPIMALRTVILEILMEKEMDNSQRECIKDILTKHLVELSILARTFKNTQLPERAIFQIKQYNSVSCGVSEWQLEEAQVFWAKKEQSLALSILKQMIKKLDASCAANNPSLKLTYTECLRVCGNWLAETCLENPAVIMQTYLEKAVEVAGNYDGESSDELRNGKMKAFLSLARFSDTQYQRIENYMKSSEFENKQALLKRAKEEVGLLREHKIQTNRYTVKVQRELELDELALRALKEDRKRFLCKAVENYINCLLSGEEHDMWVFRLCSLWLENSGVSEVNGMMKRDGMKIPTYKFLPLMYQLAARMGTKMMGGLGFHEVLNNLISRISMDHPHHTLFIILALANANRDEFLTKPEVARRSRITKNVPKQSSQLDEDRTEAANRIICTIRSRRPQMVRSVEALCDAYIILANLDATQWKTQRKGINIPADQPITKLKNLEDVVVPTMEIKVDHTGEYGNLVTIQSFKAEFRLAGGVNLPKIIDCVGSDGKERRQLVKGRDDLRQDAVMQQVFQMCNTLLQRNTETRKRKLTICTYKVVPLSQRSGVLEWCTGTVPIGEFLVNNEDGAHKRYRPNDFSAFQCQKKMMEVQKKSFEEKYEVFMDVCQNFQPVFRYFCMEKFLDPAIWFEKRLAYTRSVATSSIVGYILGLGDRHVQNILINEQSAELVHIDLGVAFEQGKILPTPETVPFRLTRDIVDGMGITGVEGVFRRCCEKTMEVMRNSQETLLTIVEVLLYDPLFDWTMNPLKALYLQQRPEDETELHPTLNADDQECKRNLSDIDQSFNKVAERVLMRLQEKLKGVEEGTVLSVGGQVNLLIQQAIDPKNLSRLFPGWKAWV
experimentalEndpoint: IC50

Ask: Please report the measured IC50 for `CCn1cc(-c2cc3c(cc2OC)ncc2c3n(-c3c(F)cncc3OC)c(=O)n2C)cn1`
Reply: < 1 nM

---

biological target: PI3K (p120γ) (human) (Homo sapiens (Human), UniProt P48736)
experimentalEndpoint: IC50

Ask: Fill in: IC50 on PI3K (p120γ) (human) (Homo sapiens (Human), UniProt P48736), entry CCn1cc(-c2cc3c(cc2OC)ncc2c3n(-c3c(F)cncc3OC)c(=O)n2C)cn1 [Example 13]
Reply: > 30 µM

---

target: PI3K p110α/p85α (human) (Homo sapiens (Human), UniProt P42336); experiment: PI3K p110α/p85α (human), non-radioactive assay (HTRF); settings: read-out: IC50 (PI3Kalpha)
experimentalEndpoint: IC50

Ask: Please report the measured IC50 for `CCn1cc(-c2cc3c(cc2OC)ncc2c3n(-c3c(F)cncc3OC)c(=O)n2C)cn1`
Reply: > 5 µM

---

target: PI3K p110β/p85α (human) (Homo sapiens (Human), UniProt P42338); test: PI3K p110β/p85α (human), non-radioactive assay (HTRF); conditions: read-out: IC50 (PI3Kbeta)
Sequence (P42338 whole entry): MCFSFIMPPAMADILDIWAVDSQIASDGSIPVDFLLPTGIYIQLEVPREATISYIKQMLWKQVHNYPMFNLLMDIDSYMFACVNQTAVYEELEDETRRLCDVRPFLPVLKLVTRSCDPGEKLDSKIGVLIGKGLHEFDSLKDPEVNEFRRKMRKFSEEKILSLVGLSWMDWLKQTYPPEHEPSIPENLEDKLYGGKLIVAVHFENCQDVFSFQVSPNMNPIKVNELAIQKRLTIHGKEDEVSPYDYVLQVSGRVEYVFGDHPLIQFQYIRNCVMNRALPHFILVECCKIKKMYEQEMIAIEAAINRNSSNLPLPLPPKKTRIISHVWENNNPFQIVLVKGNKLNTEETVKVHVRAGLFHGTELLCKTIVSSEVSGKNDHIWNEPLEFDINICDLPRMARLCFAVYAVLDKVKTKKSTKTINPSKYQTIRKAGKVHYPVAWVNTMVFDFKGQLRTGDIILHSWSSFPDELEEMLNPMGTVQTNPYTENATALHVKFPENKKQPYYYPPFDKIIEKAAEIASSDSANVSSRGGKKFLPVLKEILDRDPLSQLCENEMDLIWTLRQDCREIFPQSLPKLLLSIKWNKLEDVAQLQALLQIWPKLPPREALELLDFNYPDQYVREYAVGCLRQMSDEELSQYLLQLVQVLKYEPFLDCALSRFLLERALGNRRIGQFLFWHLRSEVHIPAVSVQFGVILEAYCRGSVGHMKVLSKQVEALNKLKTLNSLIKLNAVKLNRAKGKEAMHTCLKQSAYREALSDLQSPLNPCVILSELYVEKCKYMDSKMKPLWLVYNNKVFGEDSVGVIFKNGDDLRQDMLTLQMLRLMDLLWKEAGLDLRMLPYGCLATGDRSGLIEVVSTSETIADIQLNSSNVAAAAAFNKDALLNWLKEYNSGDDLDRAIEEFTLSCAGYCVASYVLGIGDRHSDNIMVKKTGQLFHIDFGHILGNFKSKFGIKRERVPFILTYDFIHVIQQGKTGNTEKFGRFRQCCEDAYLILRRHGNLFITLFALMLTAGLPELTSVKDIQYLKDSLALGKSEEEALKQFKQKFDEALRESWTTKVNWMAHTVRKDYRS
Sequence (P27986 whole entry partner): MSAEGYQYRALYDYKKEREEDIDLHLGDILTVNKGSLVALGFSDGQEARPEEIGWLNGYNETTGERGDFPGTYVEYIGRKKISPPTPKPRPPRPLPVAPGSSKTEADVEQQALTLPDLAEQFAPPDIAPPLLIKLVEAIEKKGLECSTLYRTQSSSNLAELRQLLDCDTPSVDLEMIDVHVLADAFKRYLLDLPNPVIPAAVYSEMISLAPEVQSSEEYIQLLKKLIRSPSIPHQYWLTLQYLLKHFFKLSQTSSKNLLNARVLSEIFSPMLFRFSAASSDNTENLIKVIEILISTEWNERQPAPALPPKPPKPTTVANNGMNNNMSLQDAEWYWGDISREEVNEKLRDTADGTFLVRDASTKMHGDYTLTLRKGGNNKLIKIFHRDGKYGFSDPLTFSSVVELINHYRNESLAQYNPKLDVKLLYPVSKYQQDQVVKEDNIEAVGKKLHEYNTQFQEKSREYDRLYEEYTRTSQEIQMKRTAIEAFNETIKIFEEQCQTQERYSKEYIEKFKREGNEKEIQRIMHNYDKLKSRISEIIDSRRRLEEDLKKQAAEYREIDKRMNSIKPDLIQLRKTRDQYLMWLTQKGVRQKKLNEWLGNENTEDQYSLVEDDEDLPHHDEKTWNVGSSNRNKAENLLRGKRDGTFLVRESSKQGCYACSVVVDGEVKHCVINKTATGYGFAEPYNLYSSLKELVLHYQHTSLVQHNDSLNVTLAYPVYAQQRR
pIC50: −log10 of the molar value.
experimentalEndpoint: pIC50

Ask: Please report the measured pIC50 for `CCn1cc(-c2cc3c(cc2OC)ncc2c3n(-c3c(F)cncc3OC)c(=O)n2C)cn1`
Reply: < 4.52

---

molecular target: human recombinant ATM (Homo sapiens (Human)); experiment: ATM kinase assay (IC50 ATM), TR-FRET; type: biochemical; conditions: 10 μM ATP, p53 substrate
experimentalEndpoint: IC50

Consider the worked cases shown below.
compound | experimentalEndpoint | measValue
COc1cc2ncc3c(c2cc1-c1cnn(C)c1)n(-c1ncc(F)cc1F)c(=O)n3C [Compound Example 1] | IC50 | < 1 nM
COc1cc2ncc3c(c2cc1-c1cnn(C)n1)n(-c1c(C)cncc1F)c(=O)n3C [compound 103] | IC50 | < 50 nM
CCn1cc(-c2cc3c(cc2OC)ncc2c3n(-c3c(F)cncc3OC)c(=O)n2C)cn1 [Example 13] | IC50 | < 1 nM

Ask: Please report the measured IC50 for COc1cc2ncc3c(c2cc1-c1cnn(C)c1)n(-c1ncc(OCCO)cc1F)c(=O)n3C [compound 67]
Reply: < 1 nM
